Entry source: paper PMC9481563

Each entry below carries its recorded Kd.
# system_tested: PIK3R1 (p85) C-terminal SH2 domain (614-724) (human, UniProt P27986 614-724)
# Sequence (P27986 614-724): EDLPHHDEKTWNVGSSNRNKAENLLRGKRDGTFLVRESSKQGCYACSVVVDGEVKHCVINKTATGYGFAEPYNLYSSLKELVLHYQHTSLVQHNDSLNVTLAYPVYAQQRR
# assay_details: FP
Where no end group is shown, it is not given here. [ ]: non-standard residue; d: D form. pY = N[C@@H](Cc1ccc(OP(=O)(O)O)cc1)C(=O)O; pS = N[C@@H](COP(=O)(O)O)C(=O)O

binder: GRKGSGD[pY]MPM[pS]PKS [ppIRS1, IRS1 peptide dually phosphorylated (pY632 + pS636)]
unit_spec: nM
Kd: 5.1
//
binder: GRKGSGD[pY]MPMSPKS [p0IRS1, IRS1 peptide with phosphotyrosine only (pY632)]
unit_spec: nM
Kd: 8.1
//
binder: GRKGSGDYMPMSPKS (phosphotyrosine at Y632; phosphoserine at S636; C-terminal lysine-ε-carboxyfluorescein label) [CF-ppIRS1, carboxyfluorescein-labelled pY632 + pS636 IRS1 peptide]
unit_spec: nM
Kd: 10.6
